target: hMC4-R (Homo sapiens); construct: expressed in transfected cells; host or cells: HEK293 cells; assay: Membrane binding assay, fluorescence polarization, fluorescence labeled NDP-alpha-MSH; conditions: HEK293 cell membrane preparations
Attribute Measured: IC50 (nM)

Example molecules with recorded IC50:
[
  {
    "Molecule": "CS(=O)(=O)NCc1ccccc1N1CCN(C(=O)[C@@H](Cc2ccc(Cl)cc2)NC(=O)c2cc(=O)c3ccccc3o2)CC1",
    "Unit Abbrev": "nM",
    "IC50": 790
  },
  {
    "Molecule": "CS(=O)(=O)Nc1ccccc1N1CCN(C(=O)[C@@H](Cc2ccc(Cl)cc2)NC(=O)c2cc(=O)c3ccccc3o2)CC1",
    "Unit Abbrev": "nM",
    "IC50": 300
  },
  {
    "Molecule": "O=C(N[C@H](Cc1ccc(Cl)cc1)C(=O)N1CCC(Cn2cncn2)(C2CCCCC2)CC1)c1cc(=O)c2ccccc2o1",
    "Unit Abbrev": "nM",
    "IC50": 4.4
  },
  {
    "Molecule": "CS(=O)(=O)N1CC2(CCN(C(=O)[C@@H](Cc3ccc(Cl)cc3)NC(=O)[C@H]3Cc4ccccc4CN3)CC2)c2ccccc21 [WO9964002, example 13, reference compound]",
    "Unit Abbrev": "nM",
    "IC50": 54
  }
]

a. CC(C)(C)NC(=O)C1(C2CCCCC2)CCN(C(=O)[C@@H](Cc2ccc(Cl)cc2)NC(=O)c2cc(=O)c3ccccc3o2)CC1
b. CS(=O)(=O)N1CC2(CCN(C(=O)[C@@H](Cc3ccc(Cl)cc3)NC(=O)c3cc(=O)c4ccccc4o3)CC2)c2ccccc21
Identify the entry with the smaller IC50: a or b . Field: selected label. Fill in the label of the entry you choose.
a

====

target: hMC4-R (Homo sapiens); construct: expressed in transfected cells; host or cells: HEK293 cells; experiment: Functional cellular cAMP assay, fluorescence polarization, HEK293 cells; type: cell-based; settings: cAMP production; read-out: EC50 activation of melanocortin-4 receptor, our assay system
pEC50: −log10 of the molar value.
Attribute Measured: pEC50

A. CS(=O)(=O)Nc1ccccc1N1CCN(C(=O)[C@@H](Cc2ccc(Cl)cc2)NC(=O)[C@H]2Cc3ccccc3CN2)CC1 [WO03009850, example 1, reference compound]
B. CS(=O)(=O)N1CC2(CCN(C(=O)[C@@H](Cc3ccc(Cl)cc3)NC(=O)[C@H]3Cc4ccccc4CN3)CC2)c2ccccc21 [WO9964002, example 13, reference compound]
Identify the entry with the smaller pEC50: A or B . Field: selected label. Fill in the label of the entry you choose.
A

====

biological target: hMC4-R (Homo sapiens); construct: expressed in transfected cells; host or cells: HEK293 cells; assay: Functional cellular cAMP assay, fluorescence polarization, HEK293 cells; assay type: cell-based
Attribute Measured: activation of the melanocortin-4 receptor in the functional assay

[
  {
    "Compound Structure String": "CS(=O)(=O)N1CC2(CCN(C(=O)[C@@H](Cc3ccc(Cl)cc3)NC(=O)c3cc(=O)c4ccccc4o3)CC2)c2ccccc21",
    "Measured Result": "does not activate"
  },
  {
    "Compound Structure String": "CS(=O)(=O)Nc1ccccc1N1CCN(C(=O)[C@@H](Cc2ccc(Cl)cc2)NC(=O)c2cc(=O)c3ccccc3o2)CC1",
    "Measured Result": "does not activate"
  },
  {
    "Compound Structure String": "CS(=O)(=O)NCc1ccccc1N1CCN(C(=O)[C@@H](Cc2ccc(Cl)cc2)NC(=O)c2cc(=O)c3ccccc3o2)CC1",
    "Measured Result": "does not activate"
  }
]

====

molecular target: hMC4-R (Homo sapiens); construct: expressed in transfected cells; host or cells: HEK293 cells; assay: Functional cellular cAMP assay, fluorescence polarization, HEK293 cells; format: cell-based; conditions: compared to stimulation with NDP-alpha-MSH
Attribute Measured: % activation functional assay (%)

a. O=C(N[C@H](Cc1ccc(Cl)cc1)C(=O)N1CCC(Cn2cncn2)(C2CCCCC2)CC1)c1cc(=O)c2ccccc2o1
b. CS(=O)(=O)Nc1ccccc1N1CCN(C(=O)[C@@H](Cc2ccc(Cl)cc2)NC(=O)[C@H]2Cc3ccccc3CN2)CC1 [WO03009850, example 1, reference compound]
Identify the entry with the smaller % activation functional assay: a or b . Field: selected label. Fill in the label of the entry you choose.
a

====

target: hMC4-R (Homo sapiens); construct: expressed in transfected cells; host or cells: HEK293 cells; assay: Functional cellular cAMP assay, fluorescence polarization, HEK293 cells; format: cell-based; conditions: cAMP production; read-out: hMC4-R functional assay EC50/nM
Attribute Measured: EC50 (nM)
Reply with just the number (in nM).

O=C(N[C@H](Cc1ccc(Cl)cc1)C(=O)N1CCC(Cn2cncn2)(C2CCCCC2)CC1)c1cc(=O)c2ccccc2o1 [Example 15] yielded EC50 of 700

====

target: hMC4-R (Homo sapiens, UniProt P32245); construct: expressed in transfected cells; host or cells: HEK293 cells; assay: Functional cellular cAMP assay, fluorescence polarization, HEK293 cells; type: cell-based; details: compared to stimulation with NDP-alpha-MSH
Sequence (P32245 whole entry): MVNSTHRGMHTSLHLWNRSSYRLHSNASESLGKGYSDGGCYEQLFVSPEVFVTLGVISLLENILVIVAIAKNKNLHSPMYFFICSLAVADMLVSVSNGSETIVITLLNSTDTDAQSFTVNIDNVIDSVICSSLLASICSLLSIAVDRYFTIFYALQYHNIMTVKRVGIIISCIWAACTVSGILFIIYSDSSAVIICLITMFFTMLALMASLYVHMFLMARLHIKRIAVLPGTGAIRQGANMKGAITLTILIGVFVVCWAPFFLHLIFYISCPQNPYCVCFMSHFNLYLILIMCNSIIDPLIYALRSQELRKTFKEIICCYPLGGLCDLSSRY
Attribute Measured: % activation functional assay (%)

[
  {
    "Molecule": "O=C(NC(Cc1ccc(Cl)cc1)C(=O)N1CCC(Cn2cncn2)(C2CCCCC2)CC1)C1Cc2ccccc2CN1 (stereo not drawn) [WO0074679, example 2]",
    "Attribute Measured": "% activation functional assay",
    "Measured Result": 102
  },
  {
    "Molecule": "CS(=O)(=O)N1CC2(CCN(C(=O)[C@@H](Cc3ccc(Cl)cc3)NC(=O)[C@H]3Cc4ccccc4CN3)CC2)c2ccccc21 [WO9964002, example 13, reference compound]",
    "Attribute Measured": "% activation functional assay",
    "Measured Result": 110
  }
]

====

target: hMC4-R (Homo sapiens); construct: expressed in transfected cells; host or cells: HEK293 cells; test: Functional cellular cAMP assay, fluorescence polarization, HEK293 cells; assay type: cell-based; settings: compared to stimulation with NDP-alpha-MSH
Attribute Measured: % activation functional assay

[
  {
    "Compound Structure String": "CS(=O)(=O)N1CC2(CCN(C(=O)[C@@H](Cc3ccc(Cl)cc3)NC(=O)c3cc(=O)c4ccccc4o3)CC2)c2ccccc21",
    "System Tested": "hMC4-R (Homo sapiens)",
    "Measured Result": "no activation"
  },
  {
    "Compound Structure String": "CS(=O)(=O)Nc1ccccc1N1CCN(C(=O)[C@@H](Cc2ccc(Cl)cc2)NC(=O)c2cc(=O)c3ccccc3o2)CC1",
    "System Tested": "hMC4-R (Homo sapiens)",
    "Measured Result": "no activation"
  },
  {
    "Compound Structure String": "CC(C)(C)NC(=O)C1(C2CCCCC2)CCN(C(=O)[C@@H](Cc2ccc(Cl)cc2)NC(=O)c2cc(=O)c3ccccc3o2)CC1",
    "System Tested": "hMC4-R (Homo sapiens)",
    "Measured Result": "no activation"
  }
]

Provenance of the data: patent US20060241123A1
